test: The drug is tested on WLS-370 corresponding to human gut metagenome with ENA study accession number: PRJEB37062 and ENA sample accession number: ERS12561793 for biotransformation under anaerobic condition. The drug concentrations were measured over 9 timepoints collected between 0 and 24 hours of incubation by liquid-chromatography-coupled mass spectrometry (LC–MS); note: call rule not given here
test_context: 2 µM
readout_name: Bacterial Biotransformation

[[record]]
molecule = "COc1ccc2c(c1)c(CC(=O)O)c(C)n2C(=O)c1ccc(Cl)cc1"
readout_name = "Bacterial Biotransformation"
endpoint_value = "Compound metabolized"

[[record]]
molecule = "CC#C[C@]1(O)CC[C@H]2[C@@H]3CCC4=CC(=O)CCC4=C3[C@@H](c3ccc(N(C)C)cc3)C[C@@]21C"
readout_name = "Bacterial Biotransformation"
endpoint_value = "Compound NOT metabolized"

[[record]]
molecule = "CCOc1ccc2nc(S(N)(=O)=O)sc2c1 [ETHOXZOLAMIDE]"
readout_name = "Bacterial Biotransformation"
endpoint_value = "Compound NOT metabolized"

[[record]]
molecule = "CC12CC3CC(C)(C1)CC(N)(C3)C2 [MEMANTINE]"
readout_name = "Bacterial Biotransformation"
endpoint_value = "Compound NOT metabolized"

[[record]]
molecule = "Cc1ccccc1C(OCCN(C)C)c1ccccc1.O=C(O)CC(O)(CC(=O)O)C(=O)O (configuration not stated) [ORPHENADRINE CITRATE]"
readout_name = "Bacterial Biotransformation"
endpoint_value = "Compound NOT metabolized"

[[record]]
molecule = "CCOC(=O)C1=C(C)NC(C)=C(C(=O)OC)C1c1cccc([N+](=O)[O-])c1 (configuration not stated)"
readout_name = "Bacterial Biotransformation"
endpoint_value = "Compound metabolized"

[[record]]
molecule = "C#C[C@]1(OC(C)=O)CC[C@H]2[C@@H]3CCC4=CC(=O)CC[C@@H]4[C@H]3CC[C@@]21C [NORETHINDRONE ACETATE]"
readout_name = "Bacterial Biotransformation"
endpoint_value = "Compound metabolized"

[[record]]
molecule = "CC(NC(C)(C)C)C(=O)c1cccc(Cl)c1 (configuration not stated)"
readout_name = "Bacterial Biotransformation"
endpoint_value = "Compound NOT metabolized"

[[record]]
molecule = "CN(C)CCOC(C)(c1ccccc1)c1ccccn1.O=C(O)CCC(=O)O (configuration not stated) [DOXYLAMINE SUCCINATE]"
readout_name = "Bacterial Biotransformation"
endpoint_value = "Compound NOT metabolized"

[[record]]
molecule = "O=P1(N(CCCl)CCCl)NCCCO1 (configuration not stated) [CYCLOPHOSPHAMIDE ANHYDROUS]"
readout_name = "Bacterial Biotransformation"
endpoint_value = "Compound NOT metabolized"

[[record]]
molecule = "CC1Cc2ccccc2N1NC(=O)c1ccc(Cl)c(S(N)(=O)=O)c1 (configuration not stated) [INDAPAMIDE]"
readout_name = "Bacterial Biotransformation"
endpoint_value = "Compound NOT metabolized"

[[record]]
molecule = "CCc1cccc2c3c([nH]c12)C(CC)(CC(=O)O)OCC3 (configuration not stated)"
readout_name = "Bacterial Biotransformation"
endpoint_value = "Compound metabolized"

[[record]]
molecule = "CC(N)C12CC3CC(CC(C3)C1)C2 (configuration not stated)"
readout_name = "Bacterial Biotransformation"
endpoint_value = "Compound NOT metabolized"

[[record]]
molecule = "c1ccc2[nH]c(-c3cscn3)nc2c1"
readout_name = "Bacterial Biotransformation"
endpoint_value = "Compound NOT metabolized"

[[record]]
molecule = "CCN(CC)CCNC(=O)c1ccc(NC(C)=O)cc1 [ACECAINIDE]"
readout_name = "Bacterial Biotransformation"
endpoint_value = "Compound NOT metabolized"

[[record]]
molecule = "CCOc1ccccc1OCCN[C@H](C)Cc1ccc(OC)c(S(N)(=O)=O)c1.Cl [TAMSULOSIN HYDROCHLORIDE]"
readout_name = "Bacterial Biotransformation"
endpoint_value = "Compound NOT metabolized"

[[record]]
molecule = "CN(C)CCC=C1c2ccccc2COc2ccccc21 [DOXEPIN]"
readout_name = "Bacterial Biotransformation"
endpoint_value = "Compound metabolized"

[[record]]
molecule = "C=CC[C@@H]1/C=C(\\C)C[C@H](C)C[C@H](OC)[C@H]2O[C@@](O)(C(=O)C(=O)N3CCCC[C@H]3C(=O)O[C@H](/C(C)=C/[C@@H]3CC[C@@H](O)[C@H](OC)C3)[C@H](C)[C@@H](O)CC1=O)[C@H](C)C[C@@H]2OC.O"
readout_name = "Bacterial Biotransformation"
endpoint_value = "Compound metabolized"

[[record]]
molecule = "CC(C)(C)NCC(O)c1cc(Cl)c(N)c(Cl)c1 (configuration not stated)"
readout_name = "Bacterial Biotransformation"
endpoint_value = "Compound NOT metabolized"

[[record]]
molecule = "O=C(O)CCC(=O)O.O=C(O[C@H]1CN2CCC1CC2)N1CCc2ccccc2[C@@H]1c1ccccc1 [SOLIFENACIN SUCCINATE]"
readout_name = "Bacterial Biotransformation"
endpoint_value = "Compound metabolized"

[[record]]
molecule = "N#Cc1ccc2[nH]cc(CCCCN3CCN(c4ccc5oc(C(N)=O)cc5c4)CC3)c2c1"
readout_name = "Bacterial Biotransformation"
endpoint_value = "Compound metabolized"

[[record]]
molecule = "CCN(CC)CCNC(=O)c1cc(S(C)(=O)=O)ccc1OC [TIAPRIDE]"
readout_name = "Bacterial Biotransformation"
endpoint_value = "Compound NOT metabolized"

[[record]]
molecule = "COc1ccc(C(CN(C)C)C2(O)CCCCC2)cc1 (configuration not stated)"
readout_name = "Bacterial Biotransformation"
endpoint_value = "Compound NOT metabolized"

[[record]]
molecule = "CCOC(=O)[C@H](CCc1ccccc1)N[C@@H](C)C(=O)N1CCC[C@H]1C(=O)O.O=C(O)/C=C\\C(=O)O [ENALAPRIL MALEATE]"
readout_name = "Bacterial Biotransformation"
endpoint_value = "Compound NOT metabolized"

[[record]]
molecule = "CN(C)CCc1c[nH]c2ccc(CS(=O)(=O)N3CCCC3)cc12"
readout_name = "Bacterial Biotransformation"
endpoint_value = "Compound NOT metabolized"

[[record]]
molecule = "COc1ccc(CN2CCNCC2)c(OC)c1OC.Cl.Cl [TRIMETAZIDINE DIHYDROCHLORIDE]"
readout_name = "Bacterial Biotransformation"
endpoint_value = "Compound NOT metabolized"

[[record]]
molecule = "O=C([O-])C[C@H](O)C[C@H](O)/C=C/c1c(C2CC2)nc2ccccc2c1-c1ccc(F)cc1.O=C([O-])C[C@H](O)C[C@H](O)/C=C/c1c(C2CC2)nc2ccccc2c1-c1ccc(F)cc1.[Ca+2]"
readout_name = "Bacterial Biotransformation"
endpoint_value = "Compound NOT metabolized"

[[record]]
molecule = "CN(C)C(=O)Oc1cccc([N+](C)(C)C)c1.[Br-] [NEOSTIGMINE BROMIDE]"
readout_name = "Bacterial Biotransformation"
endpoint_value = "Compound NOT metabolized"

[[record]]
molecule = "COCCCC/C(=N\\OCCN)c1ccc(C(F)(F)F)cc1.O=C(O)/C=C\\C(=O)O [FLUVOXAMINE MALEATE]"
readout_name = "Bacterial Biotransformation"
endpoint_value = "Compound metabolized"

[[record]]
molecule = "C[C@]12CCC(=O)C=C1[C@@H]1C[C@@H]1[C@H]1[C@@H]3[C@@H]4C[C@@H]4[C@@]4(CCC(=O)O4)[C@@]3(C)CC[C@@H]12"
readout_name = "Bacterial Biotransformation"
endpoint_value = "Compound metabolized"

[[record]]
molecule = "C[C@@H](c1ncncc1F)[C@](O)(Cn1cncn1)c1ccc(F)cc1F"
readout_name = "Bacterial Biotransformation"
endpoint_value = "Compound metabolized"

[[record]]
molecule = "CCCC(C)(COC(N)=O)COC(=O)NC(C)C (configuration not stated)"
readout_name = "Bacterial Biotransformation"
endpoint_value = "Compound metabolized"


* * *

test: The drug is tested on Z-018 corresponding to pig gut metagenome with ENA study accession number: PRJEB37062 and ENA sample accession number: ERS12561817 for biotransformation under anaerobic condition. The drug concentrations were measured over 9 timepoints collected between 0 and 24 hours of incubation by liquid-chromatography-coupled mass spectrometry (LC–MS)
test_context: 2 µM
readout_name: Bacterial Biotransformation

[[record]]
compound = "CCCN(CCC)CCc1cccc2c1CC(=O)N2"
endpoint_value = "Compound metabolized"

[[record]]
compound = "C=C[C@H]1CN2CC[C@H]1C[C@H]2[C@H](O)c1ccnc2ccc(OC)cc12.C=C[C@H]1CN2CC[C@H]1C[C@H]2[C@H](O)c1ccnc2ccc(OC)cc12.O.O.O=S(=O)(O)O [QUININE SULFATE]"
endpoint_value = "Compound NOT metabolized"

[[record]]
compound = "OC(c1cc(C(F)(F)F)nc2c(C(F)(F)F)cccc12)C1CCCCN1 (configuration not stated)"
endpoint_value = "Compound metabolized"

[[record]]
compound = "CC(C)(C)N.CCC[C@H](N[C@@H](C)C(=O)N1[C@H](C(=O)O)C[C@@H]2CCCC[C@@H]21)C(=O)OCC"
endpoint_value = "Compound metabolized"

[[record]]
compound = "C[N+]12CCC(CC1)C(OC(=O)C(O)(c1ccccc1)c1ccccc1)C2.[Br-] (configuration not stated) [CLIDINIUM BROMIDE]"
endpoint_value = "Compound metabolized"

[[record]]
compound = "CCOC(=O)[C@H](CCc1ccccc1)N[C@@H](C)C(=O)N1Cc2ccccc2C[C@H]1C(=O)O"
endpoint_value = "Compound NOT metabolized"

[[record]]
compound = "CN(C)CCC=C1c2ccccc2COc2ccccc21 [DOXEPIN]"
endpoint_value = "Compound NOT metabolized"

